system: MALME-3M melanoma; assay: NCI tumour cell line growth inhibition, 48 h; in the data active = GI50 below about 0.43 µM; inactive = the rest
Labels: 1 (active), 0 (inactive)

COMPOUND	CLASS_ASSIGNMENT
CC[C@@H](C)[C@H]([C@H](CC(=O)N1CCC[C@@H]1[C@@H](OC)[C@H](C)C(=O)N[C@H](Cc1ccccc1)c1nccs1)OC)N(C)C(=O)[C@H](NC(=O)[C@@H](C(C)C)N(C)C)C(C)C	1
COc1cc(C2CC(c3ccc4c(c3)OCO4)=NN2C(C)=O)cc(OC)c1OC (configuration not stated)	0
CC(F)(F)c1cc(F)ccc1-c1sc2cc(O)ccc2c1Oc1ccc(/C=C/C(=O)O)cc1	0
COc1cccc2c1cc([N+](=O)[O-])c1c(C(=O)O)cc3c(c12)OCO3	0
CCCCCCCCCCCCOC1C(C(COC2OC(C(O)CN3CCCCC3)C3OC(C)(C)OC23)NC(=O)Nc2ccccc2)OC2OC(C)(C)OC21 (configuration not stated)	0
COc1cc2nc(-c3ccc(-n4cncc4-c4ccc(N)cc4)cc3)sc2c(OC)c1OC	0
CCCCN(CCCC)CC(C)(C)C(O)c1ccc(OC)c2ccccc12 (configuration not stated)	0

* * *

tested on: NCI-H460 lung; assay: NCI tumour cell line growth inhibition, 48 h
Where a SMILES comes first, the peptide text is derived from it. [ ]: non-standard residue; d: D form. The star is where a group is joined. ξ: configuration not given here. ξPhe(4-NO2) = NC(Cc1ccc([N+](=O)[O-])cc1)C(=O)O; Boc = CC(C)(C)OC(=O)*; OBn = c1ccc(CO*)cc1
log10 TGI values for the compounds below.
REPORTED_ENDPOINT: log10 TGI (log10 of the value in µM)

COMPOUND	READOUT_VALUE
CCN(CC)Cc1ccc2cccnc2c1O	1.30
Cc1c2ncccc2nc2[nH]c3ccc(OCCN(C)C)cc3c12	1.04
Cc1c2ccnc(-c3ccccc3)c2cc2c1[nH]c1ccccc12	0.87
C=CC[Se]C(=O)Cc1c(C)n(C(=O)c2ccc(Cl)cc2)c2ccc(OC)cc12	0.50
C=C1CC2(OC1=O)c1ccccc1C=Cc1ccccc12	1.40
CCN(CC)CCCCCOc1cc(O)c2c(=O)cc(-c3ccccc3)oc2c1	0.74
CN1CC2=C(NC(=S)NC2c2ccc(Cl)cc2)/C(=C/c2ccc(Cl)cc2)C1 (stereo not given)	1.45
Cc1ccc(C)c(/C(=N\N=C(N)N)C2CC2)c1	1.68
CCCCN(CCCC)CC(C)(C)C(O)c1ccc(OC)c2ccccc12 (stereo not given)	1.22
CCCC(=O)NC(c1ccc2c(c1)OCO2)c1ccc2cccnc2c1O (stereo not given)	1.03
CN(C)c1ccc(C2CC(=O)C(C#N)=C(c3ccccc3)NN2C)cc1 (stereo not given)	1.57
CCn1c(-c2nonc2N)nc2c(C#CC(C)(C)O)nc(O[C@@H](CN)c3ccccc3)cc21	0.03
Oc1cc(O)cc(/C=C/c2ccc(O)c(O)c2)c1	1.78
OCCSCc1cc2c(O)c(c1)Cc1cc(CSCCO)cc(c1O)Cc1cc(CSCCO)cc(c1O)Cc1cc(CSCCO)cc(c1O)C2	0.89
CC(C)(C)OC(=O)NC(Cc1ccc([N+](=O)[O-])cc1)C(=O)NCC(=O)OCc1ccccc1 (stereo not given) (Boc-[ξPhe(4-NO2)]-Gly-OBn)	1.69
CC(NC(=O)/C(C#N)=C/c1ccc2[nH]ccc2c1)c1ccccc1 (stereo not given)	1.54
COc1cc(C)cc2c1C(=O)C(Br)=CC2=O	1.58

* * *

system: SK-MEL-5 melanoma; assay: NCI tumour cell line growth inhibition, 48 h
TGI values for the molecules below.

MOLECULE	SYSTEM_TESTED	TGI
O=C(CC1(O)C(=O)Nc2ccc(Br)cc21)c1ccc(C(=O)NCC2CCC3(CC2)OOC2(CCCCC2)OO3)cc1 (stereo not given)	SK-MEL-5 melanoma	7.09 µM
N#CC1=C(C#N)/C(=C(\C#N)C(C#N)C#N)N=C1N	SK-MEL-5 melanoma	31.8 µM
CCN(Cc1nc2cc(C(F)(F)F)ccc2nc1-c1ccccc1)c1ccc(OC)c(OC)c1	SK-MEL-5 melanoma	28 µM
C/C(=N\NS(=O)(=O)c1ccc(C)cc1)C(CN(C)C)C(c1ccccc1)c1c(O)c2ccccc2oc1=O (stereo not given)	SK-MEL-5 melanoma	> 100 µM
CCCC(=O)N/S(=N/S(=O)(=O)c1ccc(Cl)cc1)C(Cl)(Cl)Cl (stereo not given)	SK-MEL-5 melanoma	> 100 µM
CN(C)c1ncnc2c1ncn2C1C=CC(COS(N)(=O)=O)C1 (stereo not given)	SK-MEL-5 melanoma	> 100 µM
COc1cc(-c2nn(C(=O)NS(=O)(=O)c3ccc(C)cc3)cc2-c2ccncc2)ccc1Cl	SK-MEL-5 melanoma	17.1 µM
CCCCCCCCCCCCOC1C(C(COC2OC(C(O)CN3CCCCC3)C3OC(C)(C)OC23)NC(=O)Nc2ccccc2)OC2OC(C)(C)OC21 (stereo not given)	SK-MEL-5 melanoma	21.7 µM
O=C1/C(=C/c2ccc(Cl)cc2)NC(=S)N1CN1CCOCC1	SK-MEL-5 melanoma	> 100 µM
BrC(Br)(Br)c1cnc2ccccc2n1	SK-MEL-5 melanoma	7.54 µM
NC(=O)C12C3C4C1C1C2C3C41C(N)=O (stereo not given)	SK-MEL-5 melanoma	> 100 µM
CC1=CC2(O)OC3(CC2=C(C)C)C(C)CCC13 (stereo not given)	SK-MEL-5 melanoma	> 100 µM
COc1ccc(/C=C2\N=C(c3ccccc3)N(Nc3nnc(NN4C(=O)/C(=C/c5ccc(OC)cc5)N=C4c4ccccc4)c4ccccc34)C2=O)cc1	SK-MEL-5 melanoma	> 100 µM
COc1ccc(C2SC(N)=Nc3c2c(C)nn3C(=O)c2ccc(Cl)cc2)cc1 (stereo not given)	SK-MEL-5 melanoma	> 10 µM
Oc1ccc(/C=N/Nc2nc3ccccc3s2)c(O)c1	SK-MEL-5 melanoma	> 100 µM
CC(=N/NC(=S)Nc1c(C)n(C)n(-c2ccccc2)c1=O)/C(C)=N\NC(=S)Nc1c(C)n(C)n(-c2ccccc2)c1=O	SK-MEL-5 melanoma	> 100 µM
CO/C(=N\N=C\c1ccc(OC)cc1OC)c1ccncc1	SK-MEL-5 melanoma	> 10 µM
C=C(C)[C@@H]1CC[C@@H](C)[C@](O)([C@@H]2C[C@@H]([C@H](COC(=O)c3ccccc3)OC(=O)c3ccccc3)OC2=O)C1	SK-MEL-5 melanoma	> 100 µM
C#CCOc1ccc2ncnc(Nc3ccc(NC(=O)CCl)cc3)c2c1	SK-MEL-5 melanoma	15.5 µM
CN(C)c1nc(N(C)C)n2nc(-c3ccccc3[N+](=O)[O-])nc2n1	SK-MEL-5 melanoma	> 100 µM

* * *

TGI values for the compounds below.
system: EKVX NSCLC; assay: NCI tumour cell line growth inhibition, 48 h
REPORTED_ENDPOINT: TGI

COMPOUND	READOUT_VALUE
COc1cc2nc(-c3ccc(-n4cncc4-c4ccc(N)cc4)cc3)sc2c(OC)c1OC	75.9 µM
COc1ccc(NC(=O)Nc2ccc(Nc3nc(C)cc(Nc4ccc(C)cc4)n3)cc2)cc1	4.42 µM
BrC(Br)(Br)c1cnc2ccccc2n1	13.2 µM
NC12CC3CC(C1)CC(Cl)(C3)C2	> 100 µM
Cn1cnc([N+](=O)[O-])c1SCC(=O)O	> 100 µM
CC(=O)NCC1(c2ccccc2)CCN(CC2COc3ccccc3O2)CC1 (configuration not stated)	> 100 µM
Cn1cnc2c(OCC3CCCCC3)nc(N)nc21	> 100 µM
O=C(c1cc(Br)ccc1O)c1cc(Br)ccc1O	30.3 µM
COc1ccc(/C(Cl)=C(\C=O)c2ccc(Br)cc2)cc1OC	> 100 µM
O=C1Nc2ccccc2[C@]12C[C@H]2c1ccccn1	> 100 µM
CC1(C)OC(=O)C(C)(C)OC1=O	> 100 µM
Cc1cc(NC(=O)C(=O)Cc2cnc3ccccc3n2)c(S(=O)(=O)O)cc1Cl	> 100 µM
NC(C(F)(F)F)(C(F)(F)F)P(=O)(c1ccccc1)c1ccccc1	> 100 µM
COc1cccc(Cn2cc3c(c2)-c2oncc2CC3)c1	> 77 µM
CS(=O)(=O)c1[nH]nc2[nH]c(=O)[nH]c(=O)c12	> 10 µM
CC(C)CC(CNC(Cc1ccc(Cl)cc1)C(N)=O)NC(=O)C(Cc1cnc[nH]1)NC(=O)CNC(=O)C(NC(=O)C(C)NC(=O)C(Cc1c[nH]c2ccccc12)NC(=O)C(CCC(=O)O)NC(=O)C(N)Cc1ccccc1)C(C)C (configuration not stated)	> 133 µM
Cc1c2ccnc(-c3ccccc3)c2cc2c1[nH]c1ccccc12	12.5 µM
CC1=CC2(O)OC3(CC2=C(C)C)C(C)CCC13 (configuration not stated)	> 100 µM
COc1cc2ccc1-c1cc(ccc1O)CC1c3cc4c(cc3CCN1C)Oc1c(OC)cc3c(c1O4)C(C2)N(C)CC3 (configuration not stated)	4.57 µM
CCOC(=O)c1c(C)n(CC(C)C)c2c1cc1oc(=O)c(=O)n3cnc2c13	> 50 µM
CCOC(=O)c1cc2cc(NC(=O)c3cc4cc([N+](=O)[O-])ccc4n3C)ccc2n1C	> 100 µM
O=C(/C=C/c1c(O)ccc2ccccc12)c1cccc2ccccc12	> 100 µM

Cited source for all entries: PubChem BioAssay (NCI)
